Test System: SARS-CoV-2 3CL^pro (Severe acute respiratory syndrome coronavirus 2)
Construct: gene rep
Test Protocol: FRET protease assay, Lineweaver-Burk secondary plot
Type: biochemical
Property: Ki (µM)
Please state the figure in µM; there is no need to write the unit.

Q. Field request: Ki | item: CCCCCCCCCCCCCCCc1cccc(O)c1C(=O)O [AA, anacardic acid]
A. 1.87
